experiment-notes: Percentage unbound in rat plasma
Assay type: ADME, cell-free
readout-name: fraction unbound
Respond using a number only.

input: # fraction unbound lookup, item `CN1CC[C@@H](NC(=O)Nc2ccc(C#N)cc2)C[C@@H]1c1nc2ccccc2[nH]1`
output: 0.109

----------
target: Protein smoothened (Mus musculus) (UniProt P56726)
Sequence (P56726 whole entry): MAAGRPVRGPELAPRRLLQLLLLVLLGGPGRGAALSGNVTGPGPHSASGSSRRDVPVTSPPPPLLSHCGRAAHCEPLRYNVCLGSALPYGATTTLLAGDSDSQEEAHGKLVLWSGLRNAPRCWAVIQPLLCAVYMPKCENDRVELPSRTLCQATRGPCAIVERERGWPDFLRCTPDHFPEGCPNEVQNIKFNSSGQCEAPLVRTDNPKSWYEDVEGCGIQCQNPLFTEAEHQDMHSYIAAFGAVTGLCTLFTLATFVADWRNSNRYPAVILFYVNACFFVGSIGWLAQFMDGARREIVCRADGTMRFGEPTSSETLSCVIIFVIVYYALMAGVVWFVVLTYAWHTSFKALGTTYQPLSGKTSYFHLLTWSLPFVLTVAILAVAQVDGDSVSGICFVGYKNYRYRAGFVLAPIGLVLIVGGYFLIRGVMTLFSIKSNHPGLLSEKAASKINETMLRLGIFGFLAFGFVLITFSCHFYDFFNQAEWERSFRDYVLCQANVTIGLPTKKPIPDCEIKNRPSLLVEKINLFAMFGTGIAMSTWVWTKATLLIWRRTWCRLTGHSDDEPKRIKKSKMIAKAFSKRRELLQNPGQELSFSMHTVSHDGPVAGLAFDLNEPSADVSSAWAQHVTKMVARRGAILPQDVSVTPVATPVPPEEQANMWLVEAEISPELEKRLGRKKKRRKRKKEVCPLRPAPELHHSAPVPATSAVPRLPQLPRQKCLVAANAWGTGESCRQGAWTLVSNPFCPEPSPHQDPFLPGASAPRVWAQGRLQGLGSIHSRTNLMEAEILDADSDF
experiment-notes: Potency ratio, ratio of IC50 for compound to IC50 for compound 1 in mouse C3H10T1/2 cells by SMO/SHH transient transcriptional activation based Gli-luciferase reporter assay
Type: cell-based
measurement-conditions: C3H 10T1/2
readout-name: Ratio IC50

| smiles-entry | target | readout-name | reading |
| --- | --- | --- | --- |
| CN1CC[C@@H](NC(=O)c2ccc3c(c2)OCCO3)C[C@@H]1c1nc2ccccc2[nH]1 | Protein smoothened (Mus musculus) (UniProt P56726) | Ratio IC50 | 9 |
| CN1CC[C@@H](NC(=O)Nc2ccc(Cl)cc2)C[C@@H]1c1nc2ccccc2[nH]1 | Protein smoothened (Mus musculus) (UniProt P56726) | Ratio IC50 | > 50 |
| CN1CC[C@@H](NC(=O)Nc2ccc(C#N)cc2)C[C@@H]1c1nc2ccccc2[nH]1 | Protein smoothened (Mus musculus) (UniProt P56726) | Ratio IC50 | > 50 |
| COc1ccc(NC(=O)N[C@@H]2CCN(C)[C@@H](c3nc4ccccc4[nH]3)C2)cc1 | Protein smoothened (Mus musculus) (UniProt P56726) | Ratio IC50 | > 50 |
| CN1CC[C@@H](NC(=O)Nc2ccccc2)C[C@@H]1c1nc2ccccc2[nH]1 | Protein smoothened (Mus musculus) (UniProt P56726) | Ratio IC50 | > 50 |
| CN1CC[C@@H](NC(=O)Nc2ccc(C(F)(F)F)cc2)C[C@@H]1c1nc2ccccc2[nH]1 | Protein smoothened (Mus musculus) (UniProt P56726) | Ratio IC50 | > 50 |

We next turn to a different molecule, shown below.
input: Form field: reported Ratio IC50 of `CN1CC[C@@H](NC(=O)Nc2ccc3c(c2)OCCO3)C[C@@H]1c1nc2ccccc2[nH]1`
output: > 50

----------
experiment-notes: Percentage unbound in dog plasma
Type: ADME, cell-free, Canis lupus familiaris
readout-name: fraction unbound
Answer using only a numeral; do not append any unit.

input: Record request: fraction unbound value, item `CN1CC[C@@H](NC(=O)Nc2ccc(C#N)cc2)C[C@@H]1c1nc2ccccc2[nH]1`
output: 0.141

----------
experiment-notes: Plasma clearance in rat at 2 mg/kg, iv dosed in 20% PEG400/80% H2O
Assay type: ADME, organism-based
Set-up: dose 2 mg/kg, route intravenous
readout-name: clearance (mL/min/kg)
Give just the number in mL/min/kg; leave the unit off.

| smiles-entry | clearance (mL/min/kg) |
| --- | --- |
| O=C(N[C@@H]1CCC[C@H](c2nc3ccccc3[nH]2)C1)c1ccc2c(c1)OCCO2 | 33 |

Proceeding to the next compound to report its clearance.
input: Which clearance value belongs to `O=C(Nc1cccc(-c2nc3ccccc3[nH]2)c1)c1ccc2c(c1)OCCO2` ?
output: 25

----------
experiment-notes: Plasma clearance in dog
Assay type: ADME, organism-based, Canis lupus familiaris
readout-name: clearance (mL/min/kg)
State the answer as a number, implicitly in mL/min/kg.

input: Quick check: clearance of `CN1CC[C@@H](NC(=O)c2ccc3c(c2)OCCO3)C[C@@H]1c1nc2ccccc2[nH]1` ?
output: 18

----------
experiment-notes: Half life in dog at 0.5 mg/kg, iv and 3 mg/kg, po
Type: ADME, organism-based, Canis lupus familiaris
measurement-conditions: in vivo
readout-name: half-life
Don't forget the unit after the number, please.

input: # half-life lookup, item `CN1CC[C@@H](NC(=O)Nc2ccc(C#N)cc2)C[C@@H]1c1nc2ccccc2[nH]1`
output: 2.9 h

----------
target: Cytochrome P450 3A4 (Homo sapiens)
Sequence (P08684 whole entry): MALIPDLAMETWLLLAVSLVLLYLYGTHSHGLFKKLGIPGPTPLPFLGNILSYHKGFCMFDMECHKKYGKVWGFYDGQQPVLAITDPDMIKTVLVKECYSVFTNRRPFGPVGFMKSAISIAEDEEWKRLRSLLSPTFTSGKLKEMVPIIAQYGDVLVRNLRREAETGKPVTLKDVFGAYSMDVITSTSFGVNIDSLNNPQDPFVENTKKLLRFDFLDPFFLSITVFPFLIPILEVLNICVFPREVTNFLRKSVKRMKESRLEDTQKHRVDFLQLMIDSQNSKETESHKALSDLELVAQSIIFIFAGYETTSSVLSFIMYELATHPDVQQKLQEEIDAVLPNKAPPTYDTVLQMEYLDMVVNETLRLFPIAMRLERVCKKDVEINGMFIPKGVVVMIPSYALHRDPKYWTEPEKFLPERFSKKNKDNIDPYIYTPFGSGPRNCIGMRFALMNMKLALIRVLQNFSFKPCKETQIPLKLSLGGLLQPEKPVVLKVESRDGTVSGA
readout-name: IC50

input: Request the reported IC50 associated with CN1CC[C@@H](NC(=O)Nc2ccc(C#N)cc2)C[C@@H]1c1nc2ccccc2[nH]1 [GLASDEGIB]
output: > 30 µM

----------
We begin with a simple list: items and their reported Ratio IC50.
target: Protein smoothened (Mus musculus) (UniProt P56726)
experiment-notes: Potency ratio, ratio of IC50 for compound to IC50 for compound 1 in mouse C3H10T1/2 cells by SMO/SHH transient transcriptional activation based Gli-luciferase reporter assay
Type: cell-based
measurement-conditions: C3H 10T1/2

Field: example entries. Status: answers known.
| smiles-entry | Ratio IC50 |
| --- | --- |
| O=C(N[C@@H]1CCC[C@H](c2nc3ccccc3[nH]2)C1)c1ccc2c(c1)OCCO2 | 18 |
| CN1CC[C@@H](NC(=O)Nc2cccc(C#N)c2)C[C@@H]1c1nc2ccccc2[nH]1 | > 50 |

Now look at this one.
input: Entry `CN1CC[C@@H](NC(=O)Nc2cccnc2)C[C@@H]1c1nc2ccccc2[nH]1` : reported Ratio IC50 = ?
output: > 50
